# system: hAHR (Homo sapiens)
# method-description: hAHR nuclear translocation assay
# stated-conditions: Jump-In T-REx HEK293 cells expressing AhR-EGFP; 45 min incubation; ratio of EGFP intensity in nuclear over cytosol; 20-point curve
Please provide measured EC50 for the entries that follow.
Answer shape: numeric part, then the unit.

Use the examples below as a reference point.
compound	reported
CC1CCc2c1c(O)c(C(=O)Nc1ccsn1)c(=O)n2C (single isomer, unassigned) [Example 38]	1.01 nM
CC1CCc2c1cc(C(=O)Nc1ncc(F)cn1)c(=O)n2C (stereo not drawn) [Example 1]	9.78 nM
CC1CCc2c1c(O)c(C(=O)Nc1ncc(F)cn1)c(=O)n2C (stereo not drawn) [Example 30]	1.62 nM
C[C@H]1CCc2c1cc(C(=O)Nc1nnc(C(F)(F)F)o1)c(=O)n2C [Example 11]	64.7 nM
C[C@H]1CCc2c1cc(C(=O)Nc1ccsn1)c(=O)n2C [Example 19]	1.04 nM

Dear colleague, could you send me EC50 for each of the items below? Thanks.
1. C[C@H]1CCc2c1cc(C(=O)Nc1ccccc1)c(=O)n2C [Example 67]
2. C[C@@H]1CCc2c1cc(C(=O)Nc1ccccn1)c(=O)n2C [Example 23]
3. CC1CCc2c1c(O)c(C(=O)Nc1ccc(F)cn1)c(=O)n2C (single isomer, unassigned) [Example 99]

1. 0.5 nM
2. 11.5 nM
3. 2.12 nM

What value of EC50 has been recorded for this entry: Cn1c2c(cc(C(=O)Nc3ccccn3)c1=O)CC(C)(C)C2 [Example 45]
16.2 nM

* * *

# system: hAHR (Homo sapiens, UniProt P35869)
# Sequence (P35869 11-848): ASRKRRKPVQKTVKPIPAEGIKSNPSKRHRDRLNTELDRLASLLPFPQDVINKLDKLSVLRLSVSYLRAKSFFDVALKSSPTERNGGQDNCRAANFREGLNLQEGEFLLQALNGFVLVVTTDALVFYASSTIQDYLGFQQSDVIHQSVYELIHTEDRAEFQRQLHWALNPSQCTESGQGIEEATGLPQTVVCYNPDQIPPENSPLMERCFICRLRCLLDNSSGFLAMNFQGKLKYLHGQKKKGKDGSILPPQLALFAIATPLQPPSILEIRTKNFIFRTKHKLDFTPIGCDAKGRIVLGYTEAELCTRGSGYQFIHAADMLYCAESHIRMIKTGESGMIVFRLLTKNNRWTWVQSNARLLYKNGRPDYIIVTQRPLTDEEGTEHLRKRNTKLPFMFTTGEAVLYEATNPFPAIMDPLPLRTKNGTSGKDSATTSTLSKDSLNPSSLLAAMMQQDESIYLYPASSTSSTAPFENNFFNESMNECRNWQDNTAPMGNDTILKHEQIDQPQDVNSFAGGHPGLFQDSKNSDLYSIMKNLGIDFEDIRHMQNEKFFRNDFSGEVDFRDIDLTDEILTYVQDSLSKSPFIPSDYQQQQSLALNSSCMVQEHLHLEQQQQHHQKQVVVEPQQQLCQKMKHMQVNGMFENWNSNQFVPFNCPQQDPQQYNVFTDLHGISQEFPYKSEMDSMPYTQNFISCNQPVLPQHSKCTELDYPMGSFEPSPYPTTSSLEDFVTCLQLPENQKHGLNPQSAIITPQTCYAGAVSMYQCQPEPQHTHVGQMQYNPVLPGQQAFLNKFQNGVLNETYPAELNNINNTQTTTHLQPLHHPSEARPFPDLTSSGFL
# method-description: hAHR nuclear translocation assay
# stated-conditions: Jump-In T-REx HEK293 cells expressing AhR-EGFP; 45 min incubation; ratio of EGFP intensity in nuclear over cytosol; 20-point curve
So I've got a bunch of compounds here, and I need their log10 of EC50 values.
Note the log scale: values are log10 of EC50 expressed in nM.

compound	system	reported
CC1CCc2c1c(O)c(C(=O)Nc1ncccn1)c(=O)n2C (single isomer, unassigned)	hAHR (Homo sapiens, UniProt P35869)	0.61

I have 7 compounds here; please give me log10 of EC50 for each one.
1. Cn1c2c(cc(C(=O)Nc3ncc(F)cn3)c1=O)C(C)(C)CC2
2. C[C@@H]1CCc2c1cc(C(=O)Nc1ccccc1)c(=O)n2C
3. Cn1c2c(cc(C(=O)Nc3ccccc3)c1=O)CCCC2
4. CCN1CCc2c(cc(C(=O)Nc3ccccc3)c(=O)n2C)C1
5. CC1CCc2c1cc(C(=O)Nc1ncc(C(F)(F)F)cn1)c(=O)n2C (single isomer, unassigned) [Example 64]
6. CC1CCc2c1c(O)c(C(=O)Nc1ncccc1F)c(=O)n2C (single isomer, unassigned) [Example 91]
7. CC1CCc2c1cc(C(=O)NC1CCCC1)c(=O)n2C (single isomer, unassigned) [Example 60]

[1.43, -0.28, -0.30, 2.03, 0.19, 0.69, 2.60]

Hey, just so you know, these numbers are from patent US12037322B2.
